Where these numbers come from: patent US20200024285A1

test_protocol: in vivo pharmacokinetics in male Sprague-Dawley rats, plasma and brain
details: male, Sprague-Dawley, plasma, po; rat, 10 mg/kg p.o.
I'd appreciate it if you could supply AUC(0-inf) values for the items below.
All answers are understood in ng·h/mL, so give the number only.

Data request: Fill in: AUC(0-inf) of O/N=c1\cc(-c2cc3sccc3cn2)oc2ccc(OCCN3CCOCC3)cc12 [PXT001858, reference compound] is ___
Data returned: 394

Data request: Fill in: AUC(0-inf) of "ON=c1cc(-c2cc3sccc3cn2)oc2ccc(CCCN3CCOCC3)cc12" is ___
Data returned: 432

* * *

test_protocol: phase I metabolic stability, CL (r)
Assay type: in vitro ADME
details: rat
measured_metric: microsomal CLint (µL/min/mg)
All answers are understood in µL/min/mg, so give the number only.

Data request: Fill in: microsomal CLint of ON=c1cc(-c2cc3sccc3cn2)oc2ccc(CCCN3CCOCC3)cc12 [PXT002331] is ___
Data returned: 101

* * *

test_protocol: plasma protein binding
Type: in vitro ADME
details: read-out: plasma protein binding, free fraction
measured_metric: fraction unbound

Data request: Fill in: fraction unbound of "ON=c1cc(-c2cc3sccc3cn2)oc2ccc(CCCN3CCOCC3)cc12" is ___
Data returned: < 0.01

Data request: Fill in: fraction unbound of O/N=c1\cc(-c2cc3sccc3cn2)oc2ccc(OCCN3CCOCC3)cc12 [PXT001858, reference compound] is ___
Data returned: < 0.01

* * *

test_protocol: solubility in water
Assay type: physicochemical
details: as hydrochloride salt
I'd appreciate it if you could supply solubility values for the items below.

Data request: Fill in: solubility of "ON=c1cc(-c2cc3sccc3cn2)oc2ccc(CCCN3CCOCC3)cc12" is ___
Data returned: > 10000 µg/mL

Data request: Fill in: solubility of O/N=c1\cc(-c2cc3sccc3cn2)oc2ccc(OCCN3CCOCC3)cc12 [PXT001858, reference compound] is ___
Data returned: > 10000 µg/mL
